target: BAFF; test: cell binding titration by flow cytometry; soluble BAFF varied to 10 nM on cells displaying the BCMA clone
Sequence (soluble ligand, as listed by the source): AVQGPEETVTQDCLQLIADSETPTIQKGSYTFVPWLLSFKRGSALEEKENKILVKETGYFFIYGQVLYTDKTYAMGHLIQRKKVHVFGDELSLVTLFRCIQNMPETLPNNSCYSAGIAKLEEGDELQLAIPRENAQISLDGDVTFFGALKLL
Parameter Measured: Kd (pM)
Number only, in pM; omit the unit.

Binder: BCMA#72 (receptor, also called Clone #72; sBCMA variant clone 72) variant BCMA extracellular domain: MLQMAGQCSQNEYFDGLLYACIPCQLRCSSNTPPLACQRYCNASVTNSVKGTNA
Endpoint Value: 8

Incoming: Give its Kd value. Item: BCMA#74 (receptor, also called Clone #74; sBCMA variant clone 74) variant BCMA extracellular domain: MLQMAGQCPQDEYFDGLLYACIPCQLRCSSNTPPLACQRYCNASVTSSVKGTDA
Outgoing: 9

Incoming: Further, for BCMA#106 (receptor, also called Clone #106; clones #106-111) variant BCMA extracellular domain: VSQTAGQCSQNEYFDGLLHACIPCQLRCSSDIPPLACQRYCNASVTNSVKGTNA ?
Outgoing: 28

Incoming: Further, for BCMA#71 (receptor, also called Clone #71; sBCMA variant clone 71) variant BCMA extracellular domain: MLQMAGQCSQNEYFDGLLYACIPCQLRCSSNTPPLACQRYCNASVTNSVKGTDA ?
Outgoing: 9
